test system: Puccinia triticina; assay: Wheat brown rust (PUCCRT) disease control on wheat seedlings; type: in vivo; conditions: high volume application, 100 ppm, 1 day protectant
measure: PUCCRT 1DP disease control rating, HV activity at 100 ppm

Check out these entries, answers already filled in.
>  <compound>
COc1ccnc(C(=O)N[C@@H](C)C(=O)O[C@@H](C)[C@H](Oc2ccccc2)c2ccc(F)cc2)c1O

>  <result>
A (> 80)

$$$$
>  <compound>
C=CC[C@@H](Oc1ccc(F)cc1F)[C@H](C)OC(=O)[C@H](C)NC(=O)c1nccc(OC)c1O

>  <result>
A (> 80)

$$$$
>  <compound>
COc1ccnc(C(=O)NC(C)C(=O)OC(C)C(OCC(C)C)c2ccccc2)c1O (stereo not drawn) [Cmpd 820]

>  <result>
A (> 80)

$$$$
>  <compound>
COc1ccnc(C(=O)N[C@@H](C)C(=O)O[C@@H](C)[C@H](Oc2cccc(Cl)c2)C2CC2)c1O

>  <result>
A (> 80)

$$$$
>  <compound>
COc1ccnc(C(=O)NC(C)C(=O)OC(C)C(OCC2CC2)C23CC4CC(CC(C4)C2)C3)c1O (stereo not drawn)

>  <result>
A (> 80)

$$$$

PUCCRT 1DP disease control rating, HV activity at 100 ppm for COc1ccnc(C(=O)NC(C)C(=O)OC(C)C(Oc2ccccc2)c2ccc(-c3ccccc3)cc2)c1O (stereo not drawn) ?
A (> 80)

And the next one, COc1ccnc(C(=O)N[C@@H](C)C(=O)O[C@@H](C)[C@H](Oc2cccc(Cl)c2)C(C)(C)C)c1O ?
A (> 80)

And the next one, CCCOC(c1ccccc1)C(C)OC(=O)C(C)NC(=O)c1nccc(OC)c1O (stereo not drawn) ?
A (> 80)

----------
system: Puccinia triticina; experiment: Wheat brown rust (PUCCRT) disease control on wheat seedlings; format: in vivo; conditions: low volume application, 125.1 g/H, 3 Day Curative
measure: PUCCRT 3DC, LV activity at 125.1 g/H (% Control rating)

Check out these entries, answers already filled in.
>  <compound>
CC[C@H](C)[C@H](NC(=O)c1nccc(OC)c1OC(C)=O)C(=O)O[C@@H](C)[C@H](Oc1cc(F)ccc1F)C(C)C

>  <target-of-assay>
Puccinia triticina

>  <result>
A (> 80)

$$$$
>  <compound>
COc1ccnc(C(=O)N[C@@H](C)C(=O)O[C@@H](C)[C@H](Oc2ccccc2)C2CCCC2)c1OCOC(C)=O

>  <target-of-assay>
Puccinia triticina

>  <result>
A (> 80)

$$$$
>  <compound>
COc1ccnc(C(=O)N[C@@H](C)C(=O)O[C@@H](C)[C@H](Oc2ccc3ccccc3c2)C(C)C)c1OCOC(C)=O

>  <target-of-assay>
Puccinia triticina

>  <result>
A (> 80)

$$$$
>  <compound>
CCC(CC)[C@@H](Oc1ccc(Cl)cc1)[C@H](C)OC(=O)[C@H](C)NC(=O)c1nccc(OC)c1OCOC(C)=O

>  <target-of-assay>
Puccinia triticina

>  <result>
A (> 80)

$$$$
>  <compound>
COc1ccnc(C(=O)N[C@@H](C)C(=O)O[C@@H](C)[C@H](Oc2ccc(Cl)cc2)C(C)C)c1OCOC(C)=O

>  <target-of-assay>
Puccinia triticina

>  <result>
A (> 80)

$$$$

Attention now shifts to the item below.
PUCCRT 3DC, LV activity at 125.1 g/H (% Control rating) for COc1ccnc(C(=O)NC(C)C(=O)OC(C)COC(=O)C(C)C)c1OCOC(=O)C(C)C (stereo not shown) ?
D

----------
system: Zymoseptoria tritici; test: Leaf blotch of wheat (SEPTTR) disease control on wheat seedlings; type: in vivo; settings: HV application at 100 ppm; 1 Day Protectant; wheat leaf blotch
measure: SEPTTR 1DP disease control rating, HV activity

Check out these entries, answers already filled in.
>  <compound>
CCC(CC)[C@@H](Oc1cccc(Cl)c1)[C@H](C)OC(=O)[C@@H](NC(=O)c1nccc(OC)c1O)C(C)C

>  <result>
B (≤ 80)

$$$$
>  <compound>
COc1ccnc(C(=O)N[C@@H](C)C(=O)O[C@@H](C)COC2CCCC2)c1O

>  <result>
B (≤ 80)

$$$$
>  <compound>
CCC(CC)[C@H](Oc1ccc(Cl)cc1Cl)[C@H](C)OC(=O)[C@H](C)NC(=O)c1nccc(OC)c1O

>  <result>
B (≤ 80)

$$$$
>  <compound>
CC[C@H](Cc1ccccc1)[C@@H](Oc1ccccc1)[C@H](C)OC(=O)CNC(=O)c1nccc(OC)c1O

>  <result>
D

$$$$
>  <compound>
COc1ccnc(C(=O)NC(C)C(=O)OC(C)C(Oc2cc(F)ccc2F)C(C)C)c1O (stereo not drawn)

>  <result>
A (> 80)

$$$$
>  <compound>
CC[C@H](NC(=O)c1nccc(OC)c1O)C(=O)O[C@@H](C)[C@@H](COc1ccccc1)Oc1ccccc1

>  <result>
B (≤ 80)

$$$$
>  <compound>
CCC(CC)[C@@H](OCC(C)C)[C@H](C)OC(=O)[C@H](C)NC(=O)c1nccc(OC)c1O

>  <result>
B (≤ 80)

$$$$
>  <compound>
CCC(CC)[C@@H](Oc1cccc(F)c1)[C@H](C)OC(=O)[C@@H](NC(=O)c1nccc(OC)c1O)C(C)C

>  <result>
A (> 80)

$$$$

Attention now shifts to the item below.
SEPTTR 1DP disease control rating, HV activity for CCC(CC)[C@@H](Oc1ccccc1)[C@H](C)OC(=O)CNC(=O)c1nccc(OC)c1O ?
D

----------
tested on: Puccinia triticina; assay: Wheat brown rust (PUCCRT) disease control on wheat seedlings; assay type: in vivo; conditions: low volume application, 125.1 g/H, 3 Day Curative
measure: PUCCRT 3DC, LV activity at 125.1 g/H (% Control rating)

>  <molecule>
CC[C@H](CC1CCCC1)[C@@H](OCC1CC1)[C@H](C)OC(=O)[C@H](C)NC(=O)c1nccc(OC)c1OCOC(C)=O

>  <result>
B (≤ 80)

$$$$
>  <molecule>
COc1ccnc(C(=O)N[C@@H](C)C(=O)O[C@@H](C)[C@H](Oc2ccc(Cl)cc2Cl)C2CCCC2)c1OCOC(C)=O

>  <result>
B (≤ 80)

$$$$
>  <molecule>
COc1ccnc(C(=O)NC(C)C(=O)OC(C)COc2ccccc2)c1OC(C)=O (stereo not shown)

>  <result>
B (≤ 80)

$$$$

----------
system: Puccinia triticina; assay: Wheat brown rust (PUCCRT) disease control on wheat seedlings; type: in vivo; parameters: key: A: > 80; B: ≤ 80; C: Not Tested; D: No Activity Observed in the Reported Assay; conditions: low volume application, 125.1 g/H, 3 Day Curative
measure: PUCCRT 3DC, LV activity at 125.1 g/H (% Control rating)

Check out these entries, answers already filled in.
>  <molecule>
COc1ccnc(C(=O)N[C@H](C)C(=O)O[C@@H](C)[C@@H](Oc2ccccc2)C(C)C)c1OCOC(C)=O

>  <result>
D

$$$$
>  <molecule>
COc1ccnc(C(=O)N[C@@H](C)C(=O)O[C@@H](C)[C@H](Oc2cc(F)ccc2F)C(C)C)c1OC(C)=O

>  <result>
A (> 80)

$$$$
>  <molecule>
COc1ccnc(C(=O)N[C@@H](C)C(=O)O[C@@H](C)[C@H](Oc2ccc(F)cc2)C(C)C)c1OC(C)=O

>  <result>
A (> 80)

$$$$
>  <molecule>
COc1ccnc(C(=O)N[C@@H](C)C(=O)O[C@@H](C)[C@H](Oc2ccc(Cl)cc2Cl)c2ccccc2)c1OCOC(C)=O

>  <result>
B (≤ 80)

$$$$
>  <molecule>
COc1ccnc(C(=O)N[C@@H](C)C(=O)O[C@@H](C)[C@H](Oc2ccc(Cl)cc2)C(C)C)c1OC(C)=O

>  <result>
A (> 80)

$$$$

PUCCRT 3DC, LV activity at 125.1 g/H (% Control rating) for COc1ccnc(C(=O)N[C@@H](C)C(=O)O[C@@H](C)[C@H](Oc2cccc(Cl)c2)c2ccccc2)c1OC(C)=O ?
B (≤ 80)

----------
Test system: Zymoseptoria tritici
Experiment: Leaf blotch of wheat (SEPTTR) disease control on wheat seedlings
Type: in vivo
Set-up: key: A: > 80; B: ≤ 80; C: Not Tested; D: No Activity Observed in the Reported Assay
Settings: HV application at 100 ppm; 3 Day Curative; wheat leaf blotch
Procedure: All fungicides were evaluated using the aforementioned method for their activity vs. all target diseases, unless stated otherwise. Wheat leaf blotch and brown rust activity were also evaluated using track spray applications, in which case the fungicides were formulated as EC formulations, containing 0.1% Trycol 5941 in the spray solutions. […] Percent disease control was calculated using the ratio of disease severity on treated plants relative to untreated plants.
measure: SEPTTR 3DC disease control rating, HV activity

Check out these entries, answers already filled in.
>  <compound>
CCC(CC)C(Oc1cc(F)ccc1F)C(C)OC(=O)C(CC(C)C)NC(=O)c1nccc(OC)c1O (stereo not shown)

>  <result>
D

$$$$
>  <compound>
CCCOC(CC)C(Oc1ccccc1)C(C)OC(=O)C(NC(=O)c1nccc(OC)c1OCOC(C)=O)C(C)C (stereo not shown)

>  <result>
B (≤ 80)

$$$$
>  <compound>
CCC(CC)C(Oc1cc(F)cc(Cl)c1)C(C)OC(=O)C(C)NC(=O)c1nccc(OC)c1O (stereo not shown) [Cmpd 383]

>  <result>
A (> 80)

$$$$
>  <compound>
CCCOC(CC)C(Oc1ccccc1)C(C)OC(=O)C(NC(=O)c1nccc(OC)c1OC(C)=O)C(C)CC (stereo not shown)

>  <result>
B (≤ 80)

$$$$
>  <compound>
CCC(CC)[C@@H](Oc1ccc(Cl)cc1)[C@H](C)OC(=O)[C@@H](NC(=O)c1nccc(OC)c1O)C(C)C

>  <result>
D

$$$$
>  <compound>
CCOc1ccnc(C(=O)N[C@@H](C)C(=O)O[C@@H](C)[C@H](Oc2ccccc2)C(C)C)c1O

>  <result>
D

$$$$

SEPTTR 3DC disease control rating, HV activity of COc1ccnc(C(=O)N[C@@H](C)C(=O)O[C@@H](C)[C@@H](COc2ccccc2)Oc2ccccc2)c1O on Zymoseptoria tritici?
B (≤ 80)

These entries and their values trace back to patent US20180000085A1.
